# credit: ChEMBL document CHEMBL5131574

# tested_target: DNA (cytosine-5)-methyltransferase 3A (Homo sapiens)
# test: Inhibition of recombinant human DNMT3A-3L expressed in Escherichia coli Rosetta2(DE3)pLysS at 100 uM using Poly(dI-dC)-Poly(dI-dC) as substrate measured at 150 mins by liquid scintillation counting analysis
We use 90% as the dividing line for inhibition: on or above the line is yes, below is no.

1) CC#CCN(CC[C@H](N)C(=O)O)C[C@H]1O[C@@H](n2cnc3c(N)ncnc32)[C@H](O)[C@@H]1O: yes
2) C#CCN(CC[C@H](N)C(=O)O)C[C@H]1O[C@@H](n2cnc3c(N)ncnc32)[C@H](O)[C@@H]1O: yes
3) Nc1ncnc2c1ncn2[C@@H]1O[C@H](C[C@@H](N)CC[C@H](N)C(=O)O)[C@@H](O)[C@H]1O [SINEFUNGIN]: yes
4) C#CC(C)N(CC[C@H](N)C(=O)O)C[C@H]1O[C@@H](n2cnc3c(N)ncnc32)[C@H](O)[C@@H]1O (stereo partly specified): no
5) CCC#CCN(CC[C@H](N)C(=O)O)C[C@H]1O[C@@H](n2cnc3c(N)ncnc32)[C@H](O)[C@@H]1O: yes
6) Nc1ncnc2c1ncn2[C@@H]1O[C@H](CSCC[C@H](N)C(=O)O)[C@@H](O)[C@H]1O [S-ADENOSYLHOMOCYSTEINE]: yes

---

# test: Permeability of the compound in human Caco-2 cells assessed as compound remaining by measuring ester form of the donor compartment incubated for 24 hrs by LC/MS analysis
# Format: ADME, cell-based
# experimental_setup: read-out: Activity
parameter_measured: remaining at 24 h

1) C#CC(C)N(CC[C@H](N)C(=O)OCC)C[C@H]1O[C@@H](n2cnc3c(N)ncnc32)[C@H](O)[C@@H]1O (stereo partly specified): 20%

---

# tested_target: tRNA (cytosine(72)-C(5))-methyltransferase NSUN6 (Homo sapiens) (UniProt Q8TEA1)
# Sequence (Q8TEA1 whole entry): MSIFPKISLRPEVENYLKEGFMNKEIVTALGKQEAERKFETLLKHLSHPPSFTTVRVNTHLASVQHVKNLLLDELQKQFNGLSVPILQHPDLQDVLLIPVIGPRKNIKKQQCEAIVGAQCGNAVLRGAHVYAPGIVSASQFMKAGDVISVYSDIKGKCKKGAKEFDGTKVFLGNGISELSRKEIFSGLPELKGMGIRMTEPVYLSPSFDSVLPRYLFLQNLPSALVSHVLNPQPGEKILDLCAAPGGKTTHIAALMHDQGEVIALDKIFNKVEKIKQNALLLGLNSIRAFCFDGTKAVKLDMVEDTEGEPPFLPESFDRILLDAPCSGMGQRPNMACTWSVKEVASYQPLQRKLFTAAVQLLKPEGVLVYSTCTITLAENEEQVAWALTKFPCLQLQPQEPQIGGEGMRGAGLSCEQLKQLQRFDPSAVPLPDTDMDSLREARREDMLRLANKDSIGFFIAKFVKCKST
# test: Inhibition of full length human NSUN6 expressed in Escherichia coli Rosetta2(DE3)pLysS at 100 uM measured at 20 mins by liquid scintillation counting analysis
Quick list: inhibition per entry.
parameter_measured: inhibition (%)

1. CCC#CCN(CC[C@H](N)C(=O)O)C[C@H]1O[C@@H](n2cnc3c(N)ncnc32)[C@H](O)[C@@H]1O: 22.7
2. C#CCN(CC[C@H](N)C(=O)O)C[C@H]1O[C@@H](n2cnc3c(N)ncnc32)[C@H](O)[C@@H]1O: 25.9
3. Nc1ncnc2c1ncn2[C@@H]1O[C@H](CSCC[C@H](N)C(=O)O)[C@@H](O)[C@H]1O [S-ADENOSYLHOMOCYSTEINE]: 99.6
4. Nc1ncnc2c1ncn2[C@@H]1O[C@H](C[C@@H](N)CC[C@H](N)C(=O)O)[C@@H](O)[C@H]1O [SINEFUNGIN]: 70.2
5. CC#CCN(CC[C@H](N)C(=O)O)C[C@H]1O[C@@H](n2cnc3c(N)ncnc32)[C@H](O)[C@@H]1O: 12.9

---

# tested_target: Histone-lysine N-methyltransferase EHMT2 (Homo sapiens) (UniProt Q96KQ7)
# Sequence (Q96KQ7 whole entry): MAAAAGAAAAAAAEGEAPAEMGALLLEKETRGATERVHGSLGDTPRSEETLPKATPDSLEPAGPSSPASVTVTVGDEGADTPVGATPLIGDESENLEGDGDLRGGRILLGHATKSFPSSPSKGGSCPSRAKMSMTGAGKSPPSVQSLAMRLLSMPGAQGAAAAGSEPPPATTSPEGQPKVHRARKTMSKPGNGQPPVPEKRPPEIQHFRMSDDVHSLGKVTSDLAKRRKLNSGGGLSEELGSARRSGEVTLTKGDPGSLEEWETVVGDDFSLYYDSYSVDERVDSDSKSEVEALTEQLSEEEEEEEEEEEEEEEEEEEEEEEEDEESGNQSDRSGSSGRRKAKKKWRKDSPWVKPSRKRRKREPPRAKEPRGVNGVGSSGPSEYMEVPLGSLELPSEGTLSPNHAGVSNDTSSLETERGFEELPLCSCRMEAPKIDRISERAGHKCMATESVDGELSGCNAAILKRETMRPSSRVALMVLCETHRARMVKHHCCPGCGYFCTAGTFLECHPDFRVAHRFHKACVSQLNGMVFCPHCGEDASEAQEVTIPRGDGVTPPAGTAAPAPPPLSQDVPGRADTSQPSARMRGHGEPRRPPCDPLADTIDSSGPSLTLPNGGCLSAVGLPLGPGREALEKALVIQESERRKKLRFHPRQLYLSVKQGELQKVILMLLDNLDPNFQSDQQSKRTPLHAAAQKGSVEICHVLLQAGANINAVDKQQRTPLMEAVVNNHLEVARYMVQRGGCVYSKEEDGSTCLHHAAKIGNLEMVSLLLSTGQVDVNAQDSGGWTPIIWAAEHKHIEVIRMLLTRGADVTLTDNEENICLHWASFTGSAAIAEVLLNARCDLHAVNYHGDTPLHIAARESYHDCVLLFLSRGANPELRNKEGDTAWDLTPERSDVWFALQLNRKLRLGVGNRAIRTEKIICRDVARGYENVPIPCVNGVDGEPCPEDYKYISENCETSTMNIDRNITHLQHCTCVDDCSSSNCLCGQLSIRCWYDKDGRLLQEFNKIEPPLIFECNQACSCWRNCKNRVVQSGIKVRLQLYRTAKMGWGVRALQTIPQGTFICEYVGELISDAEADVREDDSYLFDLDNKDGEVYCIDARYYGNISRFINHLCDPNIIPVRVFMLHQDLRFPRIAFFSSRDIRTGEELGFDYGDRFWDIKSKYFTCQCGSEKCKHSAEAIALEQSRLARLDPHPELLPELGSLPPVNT
# test: Inhibition of recombinant human EHMT2 G9a expressed in Escherichia coli Rosetta2(DE3)pLysS at 100 uM using histone H3 as substrate measured at 120 mins by liquid scintillation counting analysis
parameter_measured: inhibition (%)

1. Nc1ncnc2c1ncn2[C@@H]1O[C@H](C[C@@H](N)CC[C@H](N)C(=O)O)[C@@H](O)[C@H]1O: 43
2. Nc1ncnc2c1ncn2[C@@H]1O[C@H](CSCC[C@H](N)C(=O)O)[C@@H](O)[C@H]1O: 94.3
3. C#CC(C)N(CC[C@H](N)C(=O)O)C[C@H]1O[C@@H](n2cnc3c(N)ncnc32)[C@H](O)[C@@H]1O (stereo partly specified): 71
4. CC#CCN(CC[C@H](N)C(=O)O)C[C@H]1O[C@@H](n2cnc3c(N)ncnc32)[C@H](O)[C@@H]1O: 37.6
5. C#CCN(CC[C@H](N)C(=O)O)C[C@H]1O[C@@H](n2cnc3c(N)ncnc32)[C@H](O)[C@@H]1O: 22.8
6. CCC#CCN(CC[C@H](N)C(=O)O)C[C@H]1O[C@@H](n2cnc3c(N)ncnc32)[C@H](O)[C@@H]1O: 32
